tested on: Aorta; assay: Vasorelaxant activity against high potassium-induced contraction in Wistar rat thoracic aorta at 100 ug/ml; format: functional; parameters: scale not given: the % may be the effect or the level left
Measured Activity, listed per entry for reference.

>  <molecule>
COc1cc(CC[N+](C)(C)[O-])c2ccc3ccccc3c2c1OC

>  <Activity [%]>
5.8

$$$$
>  <molecule>
COc1cc(CCN(C)C)c2ccc3ccccc3c2c1OC.[O-][Cl+3]([O-])([O-])O [ATHEROSPERMININE HCLO4]

>  <Activity [%]>
0

$$$$
>  <molecule>
COc1cc2c(cc1O)C(Cc1ccc(O)cc1)NCC2 (racemic) [COCLAURINE]

>  <Activity [%]>
109.9

$$$$
>  <molecule>
COc1ccc(C[C@H]2c3cc(O)c(OC)cc3CCN2C)cc1O [(S)-RETICULINE]

>  <Activity [%]>
109.3

$$$$
>  <molecule>
COc1cc2c(cc1OC)[C@H](Cc1ccc(O)cc1)NCC2 [NORARMEPAVINE]

>  <Activity [%]>
71.2

$$$$
>  <molecule>
COc1cc2c(cc1OC)[C@H](Cc1ccc(O)cc1)NCC2.[O-][Cl+3]([O-])([O-])O

>  <Activity [%]>
43

$$$$
>  <molecule>
COc1cc2ccc3c(CCN(C)C)cc4c(c3c2cc1OC)OCO4

>  <Activity [%]>
44.6

$$$$
>  <molecule>
COc1cc2c(cc1O)[C@@H](Cc1ccc(O)cc1)[N+](C)(C)CC2.[I-] [MAGNOCURARINE IODIDE]

>  <Activity [%]>
134.7

$$$$
>  <molecule>
COc1cc2c(cc1OC)C(Cc1ccc(O)cc1)NCC2 (racemic)

>  <Activity [%]>
107.8

$$$$
>  <molecule>
COc1ccc2c(ccc3c(CCN(C)O)cc4c(c32)OCO4)c1

>  <Activity [%]>
55.8

$$$$

----------
test system: Aorta; assay: Vasorelaxant activity against norepinephrine-induced tonic contraction in Wistar rat thoracic aorta at 100 ug/ml; type: functional; design: scale not given: the % may be the effect or the level left
Below is a list of entries, each paired with its recorded Activity value.

>  <compound>
COc1ccc2c(ccc3c(CCN(C)O)cc4c(c32)OCO4)c1

>  <Activity>
91.9%

$$$$
>  <compound>
COc1cc(CCN(C)C)c2ccc3ccccc3c2c1OC.[O-][Cl+3]([O-])([O-])O [ATHEROSPERMININE HCLO4]

>  <Activity>
0%

$$$$
>  <compound>
COc1ccc(C[C@H]2c3cc(O)c(OC)cc3CCN2C)cc1O [(S)-RETICULINE]

>  <Activity>
110.5%

$$$$
>  <compound>
COc1cc2c(cc1OC)C(Cc1ccc(O)cc1)NCC2 (racemic)

>  <Activity>
95.7%

$$$$
>  <compound>
COc1cc2ccc3c(CCN(C)C)cc4c(c3c2cc1OC)OCO4

>  <Activity>
0%

$$$$
>  <compound>
COc1cc2c(cc1O)C(Cc1ccc(O)cc1)NCC2 (racemic)

>  <Activity>
93.7%

$$$$
>  <compound>
COc1cc2c(cc1O)[C@@H](Cc1ccc(O)cc1)[N+](C)(C)CC2.[I-] [MAGNOCURARINE IODIDE]

>  <Activity>
123.5%

$$$$
>  <compound>
COc1cc2c(cc1OC)[C@H](Cc1ccc(O)cc1)NCC2

>  <Activity>
105.7%

$$$$
>  <compound>
COc1cc2c(cc1OC)[C@H](Cc1ccc(O)cc1)NCC2.[O-][Cl+3]([O-])([O-])O

>  <Activity>
90.5%

$$$$
>  <compound>
COc1cc(CC[N+](C)(C)[O-])c2ccc3ccccc3c2c1OC

>  <Activity>
27.5%

$$$$

----------
test system: Platelet; experiment: Inhibition of collagen-induced platelet aggregation in rabbit platelet-rich plasma at 100 ug/ml by turbidimetric method; type: functional, Oryctolagus cuniculus; parameters: scale not given: the % may be the effect or the level left

>  <compound>
COc1cc(CCN(C)C)c2ccc3ccccc3c2c1OC.[O-][Cl+3]([O-])([O-])O [ATHEROSPERMININE HCLO4]

>  <Activity / %>
0

$$$$
>  <compound>
COc1cc2ccc3c(CC[N+](C)(C)[O-])cc(OC)c(OC)c3c2cc1OC

>  <Activity / %>
52.1

$$$$
>  <compound>
COc1ccc(C[C@@H]2NCCc3cc(OC)c(OC)cc32)cc1.O=C(O)C(=O)O

>  <Activity / %>
86.6

$$$$
>  <compound>
COc1cc2c(cc1OC)C(Cc1ccc(O)cc1)NCC2 (racemic)

>  <Activity / %>
24.7

$$$$
>  <compound>
COc1cc2c(cc1O)C(Cc1ccc(O)cc1)NCC2 (racemic) [COCLAURINE]

>  <Activity / %>
69.7

$$$$
>  <compound>
COc1ccc(C[C@@H]2c3cc(OC)c(OC)cc3CCN2C)cc1OC

>  <Activity / %>
81.4

$$$$
>  <compound>
COc1cc2ccc3c(CCN(C)C)cc4c(c3c2cc1OC)OCO4

>  <Activity / %>
6.1

$$$$
>  <compound>
COc1cc2c(cc1OC)[C@H](Cc1ccc(O)cc1)NCC2.[O-][Cl+3]([O-])([O-])O

>  <Activity / %>
83.6

$$$$
>  <compound>
COc1cc(CC[N+](C)(C)C)c2ccc3ccccc3c2c1OC.[I-] [ATHEROSPERMINIUM I]

>  <Activity / %>
0

$$$$
>  <compound>
COc1ccc(C[C@H]2c3cc(O)c(OC)cc3CCN2C)cc1O [(S)-RETICULINE]

>  <Activity / %>
84.2

$$$$
>  <compound>
COc1cc2c(cc1OC)[C@H](Cc1ccc(O)cc1)NCC2 [NORARMEPAVINE]

>  <Activity / %>
83.4

$$$$
>  <compound>
COc1cc2c(cc1O)[C@@H](Cc1ccc(O)cc1)[N+](C)(C)CC2.[I-] [MAGNOCURARINE IODIDE]

>  <Activity / %>
87.7

$$$$
>  <compound>
COc1cc2c(cc1OC)[C@H](Cc1ccc(O)cc1)[N+](C)(C)CC2.[I-]

>  <Activity / %>
39.6

$$$$

----------
tested on: Platelet; assay: Inhibition of platelet-activity factor-induced platelet aggregation in rabbit platelet-rich plasma at 100 ug/ml by turbidimetric method; format: functional, Oryctolagus cuniculus; parameters: scale not given: the % may be the effect or the level left
parameter: Activity (%)

>  <molecule>
COc1cc2c(cc1O)C(Cc1ccc(O)cc1)N(C)CC2 (racemic)

>  <value_reported>
75.7

$$$$
>  <molecule>
COc1cc2ccc3c(CC[N+](C)(C)[O-])cc(OC)c(OC)c3c2cc1OC

>  <value_reported>
87.2

$$$$
>  <molecule>
COc1cc(CCN(C)C)c2ccc3ccccc3c2c1OC.[O-][Cl+3]([O-])([O-])O [ATHEROSPERMININE HCLO4]

>  <value_reported>
0

$$$$
>  <molecule>
COc1cc2c(cc1O)[C@@H](Cc1ccc(O)cc1)[N+](C)(C)CC2.[I-] [MAGNOCURARINE IODIDE]

>  <value_reported>
23.2

$$$$
>  <molecule>
COc1cc2c(cc1OC)[C@H](Cc1ccc(O)cc1)N(C)CC2.O=C(O)C(=O)O

>  <value_reported>
91.5

$$$$
>  <molecule>
COc1ccc(C[C@@H]2c3cc(OC)c(OC)cc3CCN2C)cc1OC

>  <value_reported>
92.5

$$$$
>  <molecule>
COc1cc2c(cc1O)C(Cc1ccc(O)cc1)NCC2 (racemic)

>  <value_reported>
72.7

$$$$
>  <molecule>
COc1cc2c(cc1OC)[C@H](Cc1ccc(O)cc1)[N+](C)(C)CC2.[I-]

>  <value_reported>
88.4

$$$$
>  <molecule>
COc1cc2ccc3c(CCN(C)C)cc4c(c3c2cc1OC)OCO4

>  <value_reported>
80.5

$$$$
>  <molecule>
COc1ccc(C[C@H]2NCCc3cc(OC)c(OC)cc32)cc1

>  <value_reported>
90.7

$$$$
>  <molecule>
COc1cc2c(cc1OC)[C@H](Cc1ccc(O)cc1)NCC2.[O-][Cl+3]([O-])([O-])O

>  <value_reported>
78.2

$$$$
>  <molecule>
COc1cc2c(cc1OC)C(Cc1ccc(O)cc1)NCC2 (racemic)

>  <value_reported>
86.4

$$$$
>  <molecule>
COc1ccc(C[C@H]2c3cc(O)c(OC)cc3CCN2C)cc1O [(S)-RETICULINE]

>  <value_reported>
85.9

$$$$
>  <molecule>
COc1cc(CC[N+](C)(C)[O-])c2ccc3ccccc3c2c1OC

>  <value_reported>
61.1

$$$$
>  <molecule>
COc1ccc(C[C@@H]2NCCc3cc(OC)c(OC)cc32)cc1.O=C(O)C(=O)O

>  <value_reported>
91.4

$$$$
>  <molecule>
COc1cc(CC[N+](C)(C)C)c2ccc3ccccc3c2c1OC.[I-]

>  <value_reported>
0

$$$$
>  <molecule>
COc1cc2c(cc1OC)[C@H](Cc1ccc(O)cc1)NCC2

>  <value_reported>
57.8

$$$$
>  <molecule>
COc1cc2c(cc1OC)[C@@H](Cc1ccc(O)cc1)N(C)CC2.O=C(O)C(=O)O

>  <value_reported>
93.6

$$$$
